- Test system: Monochoria vaginalis, Presl.
- EXPERIMENT SUMMARY: Preemergence weed control under flooded paddy conditions, MOOVA (Monochoria); further: meaning of each grade not given here
- Type: in vivo
- EXPERIMENTAL CONTEXT: Rate 0.0620 kg/ha; preemergence, flooded paddy; rated three to four weeks after treatment
RECORDED METRIC: herbicidal effect rating, MOOVA

                                   compound                   system_name                  recorded_metric  value
0  Cn1c(C(F)(F)F)cc(=O)n(-c2cc3c(CC#N)nsc3cc2F)c1=O  Monochoria vaginalis, Presl.  herbicidal effect rating, MOOVA    9.0
1  Cn1c(C(F)(F)F)cc(=O)n(-c2ccc3snc(C[S+]([O-])c4ccccc4)c3c2)c1=O (centres unmarked)  Monochoria vaginalis, Presl.  herbicidal effect rating, MOOVA    8.0
2  CN(C(=O)c1nsc2ccc(-n3c(=O)cc(C(F)(F)F)n(C)c3=O)cc12)c1ccc(Cl)cc1  Monochoria vaginalis, Presl.  herbicidal effect rating, MOOVA    9.0
3  CCSCCOC(=O)c1nsc2ccc(-n3c(=O)cc(C(F)(F)F)n(C)c3=O)cc12  Monochoria vaginalis, Presl.  herbicidal effect rating, MOOVA    9.0
4  CCOCN(C(=O)c1nsc2ccc(-n3c(=O)cc(C(F)(F)F)n(C)c3=O)cc12)S(C)(=O)=O  Monochoria vaginalis, Presl.  herbicidal effect rating, MOOVA    9.0
5  Cn1c(C(F)(F)F)cc(=O)n(-c2ccc3snc(COC(=O)Nc4ccccc4)c3c2)c1=O  Monochoria vaginalis, Presl.  herbicidal effect rating, MOOVA    9.0
6  CNC(=O)OCc1nsc2ccc(-n3c(=O)cc(C(F)(F)F)n(C)c3=O)cc12  Monochoria vaginalis, Presl.  herbicidal effect rating, MOOVA    9.0
7  Cn1c(C(F)(F)F)cc(=O)n(-c2ccc3snc(C(Cc4ccccc4)S(C)(=O)=O)c3c2)c1=O (centres unmarked)  Monochoria vaginalis, Presl.  herbicidal effect rating, MOOVA    6.0

Just for reference, patent EP0908457B1 is where these values come from.
